Value source: patent US9649309B2

Target: Axl (Homo sapiens (Human))
Sequence (P30530 26-894 limits assumed): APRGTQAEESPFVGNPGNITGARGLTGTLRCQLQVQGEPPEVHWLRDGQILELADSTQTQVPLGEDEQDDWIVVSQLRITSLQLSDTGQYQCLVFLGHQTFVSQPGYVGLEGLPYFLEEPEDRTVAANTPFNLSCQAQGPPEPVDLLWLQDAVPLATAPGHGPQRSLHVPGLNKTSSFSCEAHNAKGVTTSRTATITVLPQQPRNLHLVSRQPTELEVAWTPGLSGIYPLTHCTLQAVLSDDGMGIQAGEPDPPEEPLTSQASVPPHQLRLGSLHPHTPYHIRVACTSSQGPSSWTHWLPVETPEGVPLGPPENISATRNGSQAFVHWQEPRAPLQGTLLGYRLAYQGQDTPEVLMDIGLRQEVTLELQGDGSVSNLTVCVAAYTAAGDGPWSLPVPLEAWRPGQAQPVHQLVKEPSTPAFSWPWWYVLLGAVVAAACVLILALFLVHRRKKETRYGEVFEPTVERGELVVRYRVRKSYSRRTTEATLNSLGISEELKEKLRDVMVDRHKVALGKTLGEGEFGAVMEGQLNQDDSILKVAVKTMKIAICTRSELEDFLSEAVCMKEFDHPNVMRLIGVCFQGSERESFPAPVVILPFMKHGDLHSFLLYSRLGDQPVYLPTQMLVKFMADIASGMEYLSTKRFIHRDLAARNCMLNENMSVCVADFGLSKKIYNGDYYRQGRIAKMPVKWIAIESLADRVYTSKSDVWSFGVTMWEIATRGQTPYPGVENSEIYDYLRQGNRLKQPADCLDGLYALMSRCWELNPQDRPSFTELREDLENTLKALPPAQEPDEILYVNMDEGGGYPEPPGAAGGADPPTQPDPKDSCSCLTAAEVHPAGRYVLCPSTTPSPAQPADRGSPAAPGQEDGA
Details: read-out: IC50 Axl
List of pIC50 values.
Units for pIC50: none; it is -log10 of a concentration expressed in mol/L.

Before answering, review these 2 worked examples.
{"columns": ["Compound", "Measurement kind", "Data value"],
 "data": [
  ["CCCCNc1ncc(-c2ccc(C3(N4CCOCC4)CCC3)cn2)c(NC2CCC(O)CC2)n1 (centres unmarked) [UNC3666A]", "pIC50", 7.28],
  ["CCCCNc1ncc(-c2cc(Nc3cccc(-c4ccccc4)c3)ncn2)c(N[C@H]2CC[C@H](O)CC2)n1 [UNC4353A]", "pIC50", 4.52]
]}

Given the compound CCCCNc1ncc(-c2cc(NC3CCCCCC3)ncn2)c(N[C@H]2CC[C@H](O)CC2)n1 [UNC4261A] , what is its reported pIC50? 6.24

Given the compound CCCCNc1ncc(C(=O)NCc2ccc(-c3cccc(OC)c3)nc2)c(N[C@H]2CC[C@H](O)CC2)n1 [UNC4246A] , what is its reported pIC50? 6.31
